Reported values of CC50 at 6 days for individual entries
experiment: Cytotoxicity in toxicity control wells of the WNV tests; type: cell-based; settings: African green monkey, Vero 76 cells (kidney), uninfected toxicity control wells, ATCC VR-82 columns; Visual

| COMPOUND | OPERATOR_SYMBOL | CC50 at 6 days [µg/mL] |
| --- | --- | --- |
| Nc1nc(=O)n2ccn([C@@H]3O[C@H](CO)[C@@H](O)[C@H]3O)c2n1 | > | 100 |
| O=c1cnn([C@@H]2O[C@H](CO)[C@@H](O)[C@H]2O)c(=O)[nH]1 [6-aza-U, 6-azauridine, reference compound] | = | 85 |
